Quick list: phosphorylation enrichment per entry.
molecular target: Jak2 (UniProt O60674); experiment: phosphorylation enrichment, bacterial display (enrichment ratio); higher = better substrate or ligand; peptides without Tyr show the background;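 also: 11-residue human phosphosite peptides and single-mutation variants displayed on the E. coli surface, counted by deep sequencing, each peptide's frequency after selection divided by its frequency in the unselected input library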;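 also: frequency after pTyr selection over input frequency; kinase dosed for 20-30% of maximal phosphorylation in three min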
Sequence (O60674 whole entry, looked up): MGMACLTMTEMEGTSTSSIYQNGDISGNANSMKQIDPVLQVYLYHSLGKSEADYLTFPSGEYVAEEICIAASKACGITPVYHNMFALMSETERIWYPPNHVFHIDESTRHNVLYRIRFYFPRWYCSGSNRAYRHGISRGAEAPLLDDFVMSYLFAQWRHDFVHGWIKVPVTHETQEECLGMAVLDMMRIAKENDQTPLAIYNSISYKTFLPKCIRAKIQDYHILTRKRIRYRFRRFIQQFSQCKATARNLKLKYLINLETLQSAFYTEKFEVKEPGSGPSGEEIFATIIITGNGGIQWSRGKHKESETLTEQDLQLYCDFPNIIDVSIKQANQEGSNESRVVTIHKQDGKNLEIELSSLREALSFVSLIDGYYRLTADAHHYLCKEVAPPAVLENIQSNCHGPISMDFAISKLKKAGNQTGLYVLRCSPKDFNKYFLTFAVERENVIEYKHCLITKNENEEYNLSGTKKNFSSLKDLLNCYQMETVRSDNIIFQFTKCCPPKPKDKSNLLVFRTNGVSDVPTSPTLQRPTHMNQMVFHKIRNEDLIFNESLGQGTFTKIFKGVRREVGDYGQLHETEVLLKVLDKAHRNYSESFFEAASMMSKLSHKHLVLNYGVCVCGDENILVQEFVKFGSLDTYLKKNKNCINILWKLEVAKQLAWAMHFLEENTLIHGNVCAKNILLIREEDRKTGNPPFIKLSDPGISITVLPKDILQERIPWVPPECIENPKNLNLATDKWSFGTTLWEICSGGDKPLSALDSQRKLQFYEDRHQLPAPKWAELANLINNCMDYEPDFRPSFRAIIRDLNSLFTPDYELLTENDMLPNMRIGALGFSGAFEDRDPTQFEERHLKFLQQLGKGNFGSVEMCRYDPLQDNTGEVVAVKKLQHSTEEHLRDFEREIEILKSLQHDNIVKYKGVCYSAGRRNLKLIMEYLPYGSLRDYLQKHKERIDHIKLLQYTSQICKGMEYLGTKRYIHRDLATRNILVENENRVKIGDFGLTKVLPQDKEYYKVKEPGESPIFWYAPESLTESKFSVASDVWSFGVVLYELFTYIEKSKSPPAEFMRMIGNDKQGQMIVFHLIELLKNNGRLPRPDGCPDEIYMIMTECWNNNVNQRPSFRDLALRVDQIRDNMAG

biosequence: EYDRLYEEYTR [PIK3R1_Y467]
phosphorylation enrichment: 1.21
//
biosequence: EQYELYCEMGS [CBL_Y371]
phosphorylation enrichment: 1.37
//
biosequence: IGEGTSGVVYK [CDK2_Y15_Y15S]
phosphorylation enrichment: 0.494
//
biosequence: ANNEYYFRVCA
phosphorylation enrichment: 1.53
//
biosequence: NTPNAYLRVNV [ADD2_Y440_T439A]
phosphorylation enrichment: 0.806
//
biosequence: YFCRWYRNQKS [EREG_Y144_R147Q]
phosphorylation enrichment: 0.371
//
biosequence: MFCASYDTKQE [F10_Y407_G406S]
phosphorylation enrichment: 0.986
//
biosequence: ATDLAYFLVRK [ASL_Y375_YF]
phosphorylation enrichment: 2.72
//
biosequence: GHLYANDWISI [BEST1_Y227_Y227N]
phosphorylation enrichment: 0.878
//
biosequence: ARKRKYFKKHE [NFIX_Y40]
phosphorylation enrichment: 0.477
//
biosequence: TTPAVYARVAK [CTRB2_Y246]
phosphorylation enrichment: 0.464
//
biosequence: ASRKYYAMKIL [AKT3_Y174_G171R]
phosphorylation enrichment: 0.385
//
biosequence: QTSTDYDIRFF [CSNK2A1_Y131_L128S_YF]
phosphorylation enrichment: 1.61
//
biosequence: SHISGYAALRR [RAPH1_Y1226_T1228A]
phosphorylation enrichment: 0.561
//
biosequence: GRDVIYKGFED [NFU1_Y194_G190R]
phosphorylation enrichment: 0.767
//
biosequence: KDHPDYKYPPR [SOX10_Y171_Q174P]
phosphorylation enrichment: 0.462
//
biosequence: GCLSKYSGVFS [TUBGCP6_Y1624_V1621L]
phosphorylation enrichment: 1.19
//
biosequence: GMEIVYVFVKK [DNAI2_Y5_YF]
phosphorylation enrichment: 1.59
//
biosequence: MASTSYDYCRV [BST2_Y6]
phosphorylation enrichment: 0.687
//
biosequence: IGERTYGQVFK [CDK13_Y716_G714R_YF]
phosphorylation enrichment: 0.495
//
biosequence: KNDSKYVVKGN [KIT_Y823_N822K]
phosphorylation enrichment: 0.677
//
biosequence: DGMADCSDPSY [CDC5L_Y459_Y459C]
phosphorylation enrichment: 1.06
//
biosequence: KEAVLYPHLPP [SQSTM1_Y383_A381V]
phosphorylation enrichment: 0.659
//
biosequence: QEITTYRRLLE [KRT14_Y415_A413T]
phosphorylation enrichment: 1.07
//
biosequence: RDMNAYISPSP [MMAA_Y207_R209S]
phosphorylation enrichment: 0.879
//
biosequence: KEEEDYKEENN [BMS1_Y651]
phosphorylation enrichment: 1
//
biosequence: TSYQMYDKGLV [IARS2_Y231_F227S]
phosphorylation enrichment: 0.957
//
biosequence: ISIFHCAKGQP [MPZ_Y82_Y82C]
phosphorylation enrichment: 1.41
//
biosequence: RDLEQYVNNVN [PCDH19_Y1097]
phosphorylation enrichment: 1.09
//
biosequence: AAETTYDKILK [GDNF_Y156]
phosphorylation enrichment: 0.888
//
biosequence: NVDGKYSYLKV [GRM3_Y478_G475D]
phosphorylation enrichment: 0.825
//
biosequence: GADAIYDHVNE [UQCR10_Y44_I47V]
phosphorylation enrichment: 0.773
//
biosequence: IGSQRYQLGVR [RB1_Y446_K447Q]
phosphorylation enrichment: 0.413
//
biosequence: PPGRSYSPFDF [TNS1_Y793_YF]
phosphorylation enrichment: 0.843
//
biosequence: LHVGFYESDVM [A2M_Y708_R704H]
phosphorylation enrichment: 1.34
//
biosequence: SGAWSYNTSTE [SELE_Y24]
phosphorylation enrichment: 0.881
//
biosequence: LFDPDFMKVIL [CYP4A22_Y104_Y104F_YF]
phosphorylation enrichment: 2.74
//
biosequence: EEQKKYFNATK [SCN5A_Y1494_M1498T_YF]
phosphorylation enrichment: 0.6
//
biosequence: LENSTYQYICV [CRB1_Y760_R764C]
phosphorylation enrichment: 2.13
//
biosequence: EAESWYQTKYE [KRT75_Y342]
phosphorylation enrichment: 1.07
//
biosequence: LENSTYQFIRV [CRB1_Y760_YF]
phosphorylation enrichment: 0.946
//
biosequence: AFGTVYKGLWI [EGFR_Y727]
phosphorylation enrichment: 1.16
//
biosequence: ADRSCYDLSCR [GARS1_Y467_H472R]
phosphorylation enrichment: 0.8
//
biosequence: PSQRRYLFFFS [PTEN_Y174_V175L_YF]
phosphorylation enrichment: 1.74
//
biosequence: KENITYMKSEQ [L1TD1_Y24_R27S]
phosphorylation enrichment: 0.585
//
biosequence: SFLFHYADDSF [RAB3C_Y50_R49H]
phosphorylation enrichment: 0.958
//
biosequence: RPGSGYTNIMQ [PKLR_Y564_R569Q]
phosphorylation enrichment: 0.463
//
biosequence: DEEPPDRGPFC [SASH1_Y551_Y551D]
phosphorylation enrichment: 0.952
//
biosequence: QKKPCYEIRWK [PDGFRB_Y562_R561C]
phosphorylation enrichment: 0.653
//
biosequence: DAMQTYNGNDE [TSPAN7_Y131]
phosphorylation enrichment: 1.03
//
biosequence: ADYYDYGHGLS [KHDRBS3_Y304]
phosphorylation enrichment: 5.75
//
biosequence: KQRKEYMHRRQ [IQGAP2_Y710]
phosphorylation enrichment: 0.636
//
biosequence: LRNIDYYRLDG [ATRX_Y2083]
phosphorylation enrichment: 6.17
//
biosequence: AAVDNYCRHNY [HLA-DRB1_Y107_T106N]
phosphorylation enrichment: 0.612
//
biosequence: LLLLFCVVRFC [MPZ_Y177_Y177C_YF]
phosphorylation enrichment: 0.607
//
biosequence: QKPLDYYRVNL [GALE_Y104]
phosphorylation enrichment: 20.5
//
biosequence: WASGIYFVPKG [APBB1IP_Y340_R335W_YF]
phosphorylation enrichment: 7.69
